The measurements presented in this section are drawn from ChEMBL document CHEMBL3526090.

test: AUClast in BALB/cAnNCrlCrlj mouse plasma treated with laninamivir octanoate at 0.5 umol/kg administered intranasally; type: ADME, cell-free; set-up: dose 0.5 umol/kg, time 0 - last, route nasal; conditions: inhaled or intranasal
measurement name: AUC(0-t) (µM·h)

# smiles representation, measurement name, unit text, readout number
rows = [
    ("CO[C@@H]([C@@H]1OC(C(=O)O)=C[C@H](NC(=N)N)[C@H]1NC(C)=O)[C@H](O)CO", "AUC(0-t)", "µM·h", 0.445),
]
